Entry source: paper PMC11933327

tested.target: ATM/Tel1, active state (endogenously activated by DNA damage) (Schizosaccharomyces pombe, UniProt O74630 1-2812, autophosphorylation and acetylation (sites not given))
Sequence (O74630 whole entry): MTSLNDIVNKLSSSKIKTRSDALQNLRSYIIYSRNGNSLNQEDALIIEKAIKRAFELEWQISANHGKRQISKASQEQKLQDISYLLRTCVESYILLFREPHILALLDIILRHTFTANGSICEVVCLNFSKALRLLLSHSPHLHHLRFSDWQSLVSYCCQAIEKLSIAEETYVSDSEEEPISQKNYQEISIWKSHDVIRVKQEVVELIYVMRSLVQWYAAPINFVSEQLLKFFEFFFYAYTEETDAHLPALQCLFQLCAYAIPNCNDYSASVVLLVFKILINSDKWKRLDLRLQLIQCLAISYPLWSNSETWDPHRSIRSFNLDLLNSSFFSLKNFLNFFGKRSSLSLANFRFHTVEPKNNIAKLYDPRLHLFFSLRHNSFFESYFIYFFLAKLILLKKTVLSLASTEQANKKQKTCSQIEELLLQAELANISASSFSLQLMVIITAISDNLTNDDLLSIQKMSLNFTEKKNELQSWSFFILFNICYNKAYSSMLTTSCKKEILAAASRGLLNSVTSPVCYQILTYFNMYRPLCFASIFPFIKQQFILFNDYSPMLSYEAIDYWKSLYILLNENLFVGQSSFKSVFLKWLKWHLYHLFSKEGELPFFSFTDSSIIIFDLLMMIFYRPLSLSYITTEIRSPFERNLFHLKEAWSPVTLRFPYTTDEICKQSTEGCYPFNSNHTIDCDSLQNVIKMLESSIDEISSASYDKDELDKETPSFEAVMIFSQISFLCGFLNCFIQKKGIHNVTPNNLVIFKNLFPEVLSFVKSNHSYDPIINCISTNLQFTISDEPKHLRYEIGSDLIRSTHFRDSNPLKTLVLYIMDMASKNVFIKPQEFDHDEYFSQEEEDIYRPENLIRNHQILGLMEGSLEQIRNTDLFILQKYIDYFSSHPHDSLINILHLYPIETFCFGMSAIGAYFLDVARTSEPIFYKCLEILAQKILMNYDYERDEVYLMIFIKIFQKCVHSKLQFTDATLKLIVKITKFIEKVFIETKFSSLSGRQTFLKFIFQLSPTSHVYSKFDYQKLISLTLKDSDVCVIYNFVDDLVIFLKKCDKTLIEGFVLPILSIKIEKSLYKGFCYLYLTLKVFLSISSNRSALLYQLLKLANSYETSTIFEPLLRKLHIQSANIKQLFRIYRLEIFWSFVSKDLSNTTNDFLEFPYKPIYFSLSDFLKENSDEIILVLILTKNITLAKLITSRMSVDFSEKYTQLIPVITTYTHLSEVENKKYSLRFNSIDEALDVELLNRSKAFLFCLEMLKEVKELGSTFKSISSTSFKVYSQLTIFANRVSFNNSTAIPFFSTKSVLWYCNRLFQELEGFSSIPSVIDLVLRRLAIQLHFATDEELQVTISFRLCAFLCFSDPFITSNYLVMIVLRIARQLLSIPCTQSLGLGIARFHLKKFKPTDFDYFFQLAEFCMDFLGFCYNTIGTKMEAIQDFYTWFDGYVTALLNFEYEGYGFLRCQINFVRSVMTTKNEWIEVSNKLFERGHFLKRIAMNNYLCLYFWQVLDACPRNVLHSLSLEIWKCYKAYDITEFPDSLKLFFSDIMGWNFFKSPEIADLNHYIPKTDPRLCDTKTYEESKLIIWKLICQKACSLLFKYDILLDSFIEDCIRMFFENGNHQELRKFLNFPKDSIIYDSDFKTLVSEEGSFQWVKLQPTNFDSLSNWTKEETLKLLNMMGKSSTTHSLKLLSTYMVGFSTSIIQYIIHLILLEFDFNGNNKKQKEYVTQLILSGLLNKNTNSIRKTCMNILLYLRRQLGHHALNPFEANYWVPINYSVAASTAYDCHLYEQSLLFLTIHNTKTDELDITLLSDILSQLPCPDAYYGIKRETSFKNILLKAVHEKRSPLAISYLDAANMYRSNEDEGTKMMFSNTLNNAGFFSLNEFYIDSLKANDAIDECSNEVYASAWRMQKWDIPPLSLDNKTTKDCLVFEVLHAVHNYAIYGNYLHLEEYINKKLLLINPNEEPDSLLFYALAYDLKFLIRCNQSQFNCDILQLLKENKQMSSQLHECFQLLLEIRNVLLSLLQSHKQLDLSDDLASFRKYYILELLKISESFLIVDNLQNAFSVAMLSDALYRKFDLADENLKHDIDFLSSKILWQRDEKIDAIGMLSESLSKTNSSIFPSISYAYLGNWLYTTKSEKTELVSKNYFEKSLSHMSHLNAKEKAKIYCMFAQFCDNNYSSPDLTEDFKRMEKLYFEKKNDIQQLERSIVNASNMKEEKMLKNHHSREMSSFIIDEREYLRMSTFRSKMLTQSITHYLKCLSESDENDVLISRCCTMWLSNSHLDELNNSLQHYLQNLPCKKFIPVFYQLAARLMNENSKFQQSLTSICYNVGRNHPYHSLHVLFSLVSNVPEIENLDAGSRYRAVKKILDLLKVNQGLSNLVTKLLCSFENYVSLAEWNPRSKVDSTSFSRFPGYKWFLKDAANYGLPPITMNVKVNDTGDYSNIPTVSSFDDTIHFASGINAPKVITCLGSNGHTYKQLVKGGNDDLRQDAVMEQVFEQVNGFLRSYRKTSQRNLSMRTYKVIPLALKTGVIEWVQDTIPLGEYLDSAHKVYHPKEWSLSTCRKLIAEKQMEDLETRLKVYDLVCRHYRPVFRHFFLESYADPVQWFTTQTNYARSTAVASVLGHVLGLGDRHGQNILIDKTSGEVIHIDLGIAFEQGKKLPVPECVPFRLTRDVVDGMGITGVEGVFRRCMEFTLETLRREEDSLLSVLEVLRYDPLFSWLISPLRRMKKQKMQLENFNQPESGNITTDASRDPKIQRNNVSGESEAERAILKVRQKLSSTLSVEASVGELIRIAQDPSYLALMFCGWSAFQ
protocol.text: SPR

>  <binder>
LETVSTQELYSI (peptide, UniProt O96017 63-74, looked up, CHK2 residues 63-74; also called CHK2 peptide) [CHK2 substrate peptide (CHK2 63-74)]

>  <Kd (nM)>
2370

$$$$
